Listing of entries alongside the reported SPOT peptide array binding signal intensity.
Target: ScSho1
Experiment: SPOT peptide array binding signal intensity (averaged, normalized) (arbitrary units (background-subtracted, floor 0; scale differs between SH3 domains)); higher = stronger binding of the SH3 domain to the peptide
outcome-measure: SPOT peptide array binding signal intensity

binder	number
LYKRKPILLPDPKPL	62.5
TKFRISLGLPVGAIM	2880
EREKALPPIPFTTTL	7050
SKIRPTPRKPSRMAT	346
